- test-protocol: Tissue distribution of Compound A in mice with mammary C/16 adenocarcinomas (first method: liver, heart, kidney, lung, spleen, tumor)
- Format: in vivo, C3H/HeN female mice
- test-parameters: mouse, tumor, iv; 40 mg/kg i.v.; read-out: time of maximum concentration, tumor
property-measured: Tmax

CC(=O)O[C@H]1C(=O)[C@]23C[C@H]2C[C@H]2OC[C@@]2(OC(C)=O)[C@H]3[C@H](OC(=O)c2ccccc2)[C@]2(O)C[C@H](OC(=O)[C@H](O)[C@@H](NC(=O)OC(C)(C)C)c3ccccc3)C(C)=C1C2(C)C : 15 min

====

- test-protocol: Tissue distribution of Compound A in mice with mammary C/16 adenocarcinomas (first method: liver, heart, kidney, lung, spleen, tumor)
- Format: in vivo, C3H/HeN female mice
- test-parameters: mouse, tumor/plasma, iv, dose 40; 24 h; single mice; read-out: Tumor/Plasma Ratio
property-measured: Kp at 24 h

CC(=O)O[C@H]1C(=O)[C@]23C[C@H]2C[C@H]2OC[C@@]2(OC(C)=O)[C@H]3[C@H](OC(=O)c2ccccc2)[C@]2(O)C[C@H](OC(=O)[C@H](O)[C@@H](NC(=O)OC(C)(C)C)c3ccccc3)C(C)=C1C2(C)C : 2.79

====

- test-protocol: Tissue distribution of Compound A in mice with mammary C/16 adenocarcinomas (first method: liver, heart, kidney, lung, spleen, tumor)
- Format: in vivo, C3H/HeN female mice
- test-parameters: mouse, heart/plasma, iv, 40 mg/kg, 0.50 h; mice with tumors; single mice; read-out: Tissue/Plasma Ratio, HEART
property-measured: Kp at 0.5 h

CC(=O)O[C@H]1C(=O)[C@]23C[C@H]2C[C@H]2OC[C@@]2(OC(C)=O)[C@H]3[C@H](OC(=O)c2ccccc2)[C@]2(O)C[C@H](OC(=O)[C@H](O)[C@@H](NC(=O)OC(C)(C)C)c3ccccc3)C(C)=C1C2(C)C : 0.88

====

- test-protocol: Tissue distribution of Compound A in mice with mammary C/16 adenocarcinomas (first method: liver, heart, kidney, lung, spleen, tumor)
- Type: in vivo, C3H/HeN female mice
- test-parameters: mouse, tumor/plasma, iv, dose 24.8; 4 h; single mice; read-out: Tumor/Plasma Ratio
property-measured: Kp at 4 h

CC(=O)O[C@H]1C(=O)[C@]23C[C@H]2C[C@H]2OC[C@@]2(OC(C)=O)[C@H]3[C@H](OC(=O)c2ccccc2)[C@]2(O)C[C@H](OC(=O)[C@H](O)[C@@H](NC(=O)OC(C)(C)C)c3ccccc3)C(C)=C1C2(C)C : 1.61

====

- test-protocol: Tissue distribution of Compound A in mice with mammary C/16 adenocarcinomas (first method: liver, heart, kidney, lung, spleen, tumor)
- Assay type: in vivo, C3H/HeN female mice
- test-parameters: mouse, tumor, iv, 40 mg/kg; read-out: t 1/2, Tumor (converted)
property-measured: half-life (h)

CC(=O)O[C@H]1C(=O)[C@]23C[C@H]2C[C@H]2OC[C@@]2(OC(C)=O)[C@H]3[C@H](OC(=O)c2ccccc2)[C@]2(O)C[C@H](OC(=O)[C@H](O)[C@@H](NC(=O)OC(C)(C)C)c3ccccc3)C(C)=C1C2(C)C : 9.3

====

- test-protocol: Tissue distribution of Compound A in mice with mammary C/16 adenocarcinomas (first method: liver, heart, kidney, lung, spleen, tumor)
- Type: in vivo, C3H/HeN female mice
- test-parameters: mouse, kidney, iv, 40 mg/kg; read-out: t 1/2, Kidney (converted)
property-measured: half-life (h)

CC(=O)O[C@H]1C(=O)[C@]23C[C@H]2C[C@H]2OC[C@@]2(OC(C)=O)[C@H]3[C@H](OC(=O)c2ccccc2)[C@]2(O)C[C@H](OC(=O)[C@H](O)[C@@H](NC(=O)OC(C)(C)C)c3ccccc3)C(C)=C1C2(C)C : 2.7

====

- test-protocol: Tissue distribution of Compound A in mice with mammary C/16 adenocarcinomas (first method: liver, heart, kidney, lung, spleen, tumor)
- Assay type: in vivo, C3H/HeN female mice
- test-parameters: mouse, heart/plasma, iv, 40 mg/kg, 1 h; mice with tumors; single mice; read-out: Tissue/Plasma Ratio, HEART
property-measured: Kp at 1 h

CC(=O)O[C@H]1C(=O)[C@]23C[C@H]2C[C@H]2OC[C@@]2(OC(C)=O)[C@H]3[C@H](OC(=O)c2ccccc2)[C@]2(O)C[C@H](OC(=O)[C@H](O)[C@@H](NC(=O)OC(C)(C)C)c3ccccc3)C(C)=C1C2(C)C [Compound A] : 0.77

====

- test-protocol: Brain distribution of Compound A in mice with mammary C/16 adenocarcinomas (second method, brain tissue)
- Assay type: in vivo, C3H/HeN female mice
- test-parameters: mouse, brain/plasma, iv, 40 mg/kg, 4 h; 40 μg/kg [sic]; single mice; read-out: RATIO BRAIN/PLASMA
property-measured: Kp at 4 h

CC(=O)O[C@H]1C(=O)[C@]23C[C@H]2C[C@H]2OC[C@@]2(OC(C)=O)[C@H]3[C@H](OC(=O)c2ccccc2)[C@]2(O)C[C@H](OC(=O)[C@H](O)[C@@H](NC(=O)OC(C)(C)C)c3ccccc3)C(C)=C1C2(C)C : 2.84

====

- test-protocol: Tissue distribution of Compound A in mice with mammary C/16 adenocarcinomas (first method: liver, heart, kidney, lung, spleen, tumor)
- Assay type: in vivo, C3H/HeN female mice
- test-parameters: mouse, tumor/plasma, iv, dose 60.5; 0.25 h; single mice; read-out: Tumor/Plasma Ratio
property-measured: Kp at 0.25 h

CC(=O)O[C@H]1C(=O)[C@]23C[C@H]2C[C@H]2OC[C@@]2(OC(C)=O)[C@H]3[C@H](OC(=O)c2ccccc2)[C@]2(O)C[C@H](OC(=O)[C@H](O)[C@@H](NC(=O)OC(C)(C)C)c3ccccc3)C(C)=C1C2(C)C : 0.39

====

- test-protocol: Plasma kinetics of Compound A after i.v. injection in mice (HPLC)
- Assay type: in vivo, C3H/HeN female mice
- test-parameters: mouse, plasma, iv; 15.4 mg/kg i.v.; 2 minutes; read-out: observed maximum plasma concentration
property-measured: Cmax at 2 min (ng/mL)

CC(=O)O[C@H]1C(=O)[C@]23C[C@H]2C[C@H]2OC[C@@]2(OC(C)=O)[C@H]3[C@H](OC(=O)c2ccccc2)[C@]2(O)C[C@H](OC(=O)[C@H](O)[C@@H](NC(=O)OC(C)(C)C)c3ccccc3)C(C)=C1C2(C)C [Compound A] : 21000

====

- test-protocol: Tissue distribution of Compound A in mice with mammary C/16 adenocarcinomas (first method: liver, heart, kidney, lung, spleen, tumor)
- Format: in vivo, C3H/HeN female mice
- test-parameters: mouse, liver/plasma, iv, 40 mg/kg, 4 h; mice with tumors; single mice; read-out: Tissue/Plasma Ratio, LIVER
property-measured: Kp at 4 h

CC(=O)O[C@H]1C(=O)[C@]23C[C@H]2C[C@H]2OC[C@@]2(OC(C)=O)[C@H]3[C@H](OC(=O)c2ccccc2)[C@]2(O)C[C@H](OC(=O)[C@H](O)[C@@H](NC(=O)OC(C)(C)C)c3ccccc3)C(C)=C1C2(C)C : 0.93

====

- test-protocol: Tissue distribution of Compound A in mice with mammary C/16 adenocarcinomas (first method: liver, heart, kidney, lung, spleen, tumor)
- Format: in vivo, C3H/HeN female mice
- test-parameters: mouse, spleen/plasma, iv, 40 mg/kg, 1 h; mice with tumors; single mice; read-out: Tissue/Plasma Ratio, SPLEEN
property-measured: Kp at 1 h

CC(=O)O[C@H]1C(=O)[C@]23C[C@H]2C[C@H]2OC[C@@]2(OC(C)=O)[C@H]3[C@H](OC(=O)c2ccccc2)[C@]2(O)C[C@H](OC(=O)[C@H](O)[C@@H](NC(=O)OC(C)(C)C)c3ccccc3)C(C)=C1C2(C)C : 1.1

====

- test-protocol: Tissue distribution of Compound A in mice with mammary C/16 adenocarcinomas (first method: liver, heart, kidney, lung, spleen, tumor)
- Assay type: in vivo, C3H/HeN female mice
- test-parameters: mouse, kidney/plasma, iv, 40 mg/kg, 14 h; 40 μg/kg [sic]; mice with tumors; single mice; read-out: Tissue/Plasma Ratio, KIDNEY
property-measured: Kp at 14 h

CC(=O)O[C@H]1C(=O)[C@]23C[C@H]2C[C@H]2OC[C@@]2(OC(C)=O)[C@H]3[C@H](OC(=O)c2ccccc2)[C@]2(O)C[C@H](OC(=O)[C@H](O)[C@@H](NC(=O)OC(C)(C)C)c3ccccc3)C(C)=C1C2(C)C : 2.56

====

- test-protocol: Brain distribution of Compound A in mice with mammary C/16 adenocarcinomas (second method, brain tissue)
- Type: in vivo, C3H/HeN female mice
- test-parameters: mouse, brain, iv, 40 mg/kg, 0.75 h; 40 μg/kg [sic]; single mice, MEAN=b278; read-out: Brain CONC.
property-measured: concentration at 0.75 h (ng/g)

CC(=O)O[C@H]1C(=O)[C@]23C[C@H]2C[C@H]2OC[C@@]2(OC(C)=O)[C@H]3[C@H](OC(=O)c2ccccc2)[C@]2(O)C[C@H](OC(=O)[C@H](O)[C@@H](NC(=O)OC(C)(C)C)c3ccccc3)C(C)=C1C2(C)C : 7540
